Attribution: the supplement of paper PMC4932681

We begin with a simple list: items and their reported viability inhibition at highest dose.
system: BT-474 Tam2; assay: viability inhibition at highest dose (% inhibition); higher = more growth inhibition; settings: 4-OH-tamoxifen in medium 1 µM; 72 h
Lab note: jot the number down without any unit.

Recorded results for 5 compounds are shown here.
compound | viability inhibition at highest dose
C[C@]1(O)C[C@@H](c2nc(-c3ccc4ccc(-c5ccccc5)nc4c3)c3c(N)nccn32)C1 [Linsitinib (OSI-906)] (drug 10000 nM) | 7.88
CN1CCN(c2nc(C3=C(c4c[nH]c5ccccc45)C(=O)NC3=O)c3ccccc3n2)CC1 [Sotrastaurin] (drug 10000 nM) | 25.2
Clc1ccc(Nc2nnc(Cc3ccncc3)c3ccccc23)cc1 [Vatalanib] (drug 10000 nM) | 10.3
Cc1cc2c(F)c(Oc3ncnn4cc(OC[C@@H](C)O)c(C)c34)ccc2[nH]1 [Brivanib] (drug 1000 nM) | 7.57
Cc1sc2c(c1C)C(c1ccc(Cl)cc1)=N[C@@H](CC(=O)OC(C)(C)C)c1nnc(C)n1-2 [(+)JQ1] (drug 10000 nM) | 76.6

IN: Tell me reported viability inhibition at highest dose for N#CC[C@H](C1CCCC1)n1cc(-c2ncnc3[nH]ccc23)cn1 (drug 10000 nM) , tested with BT-474 Tam2.
OUT: -31.9

IN: Tell me reported viability inhibition at highest dose for OC[C@H]1O[C@@H](n2cnc3c2N=CNC[C@H]3O)C[C@@H]1O [Pentostatin] (drug 10000 nM) , tested with BT-474 Tam2.
OUT: 16

###

We begin with a simple list: items and their reported relative IC50.
tested on: BT-474; experiment: relative IC50 (midpoint of fitted logistic curve, plateau may be below 50% inhibition; CellTiter-Glo viability); higher = less potent; details: 4-OH-tamoxifen in medium 0 µM; 72 h
Expressed in µM, but write only the number.

IN: // lookup relative IC50 for `O=C(Nc1cccnc1)N1CCC(Cc2cccc(Oc3ccc(C(F)(F)F)cn3)c2)CC1`
OUT: 0.245

IN: // lookup relative IC50 for `CC(=O)O[C@H]1C(=O)[C@@]2(C)[C@H]([C@H](OC(=O)c3ccccc3)[C@]3(O)C[C@H](OC(=O)[C@H](O)[C@@H](NC(=O)c4ccccc4)c4ccccc4)C(C)=C1C3(C)C)[C@]1(OC(C)=O)CO[C@@H]1C[C@@H]2O`
OUT: 0.00849

###

test system: BT-474; assay: viability inhibition at highest dose (% inhibition); higher = more growth inhibition; details: 4-OH-tamoxifen in medium 0 µM; 72 h
Where a name gives a salt, the structure may show the parent alone.
Measured viability inhibition at highest dose determines class: low (below 2), moderate (2 to below 50), high (50 or more)

Reference set, count: 8
molecule | category.label
CO[C@H]1C[C@@H]2CC[C@@H](C)[C@@](O)(O2)C(=O)C(=O)N2CCCC[C@H]2C(=O)O[C@H]([C@H](C)C[C@@H]2CC[C@@H](O)[C@H](OC)C2)CC(=O)[C@H](C)/C=C(\C)[C@@H](O)[C@@H](OC)C(=O)[C@H](C)C[C@H](C)/C=C/C=C/C=C/1C [Sirolimus (Rapamycin)] (drug 1000 nM) | moderate
Cc1[nH]c2ccccc2c1CCNCc1ccc(/C=C/C(=O)NO)cc1 [Panobinostat] (drug 1000 nM) | high
N#CCNC(=O)c1ccc(-c2ccnc(Nc3ccc(N4CCOCC4)cc3)n2)cc1 [Momelotinib (CYT-387)] (drug 10000 nM) | moderate
O=C(Cc1ccc(-c2ccc(OCCN3CCOCC3)cc2)cn1)NCc1ccccc1 [KX2-391] (drug 10000 nM) | moderate
Nc1cc(C(F)(F)F)c(-c2cc(N3CCOCC3)nc(N3CCOCC3)n2)cn1 [Buparlisib (BKM-120)] (drug 10000 nM) | high
C/C(=C\c1csc(C)n1)[C@@H]1C[C@@H]2O[C@]2(C)CCC[C@H](C)[C@H](O)[C@@H](C)C(=O)C(C)(C)[C@@H](O)CC(=O)N1 [Ixabepilone] (drug 1000 nM) | low
O=P(O)(NCCCl)NCCCl [Ifosfamide mustard] (drug 10000 nM) | low
CC(=O)[C@]1(O)Cc2c(O)c3c(c(O)c2[C@@H](O[C@H]2C[C@H](N)[C@H](O)[C@H](C)O2)C1)C(=O)c1ccccc1C3=O [Idarubicin] (drug 1000 nM) | high

IN: Using the reported viability inhibition at highest dose, which band applies to O=C(/C=C/c1cccnc1)NCCCCC1CCN(C(=O)c2ccccc2)CC1 [Daporinad (FK-866 HCl)] (drug 1000 nM) ?
OUT: moderate

IN: Using the reported viability inhibition at highest dose, which band applies to COc1cc2c(Oc3ccc(NC(=O)C4(C(=O)Nc5ccc(F)cc5)CC4)cc3F)ccnc2cc1OCCCN1CCOCC1 [Foretinib (Foretinib)] (drug 1000 nM) ?
OUT: low

###

tested on: BT-474; test: relative IC50 (midpoint of fitted logistic curve, plateau may be below 50% inhibition; CellTiter-Glo viability); higher = less potent; details: 4-OH-tamoxifen in medium 1 µM; 72 h
Where a name gives a salt, the structure may show the parent alone.
experimental.readout: relative IC50 (nM)
Expressed in nM, but write only the number.

Recorded results for 2 compounds are shown here.
compound | relative IC50 (nM)
CCOc1cc2ncc(C#N)c(Nc3ccc(OCc4ccccn4)c(Cl)c3)c2cc1NC(=O)/C=C/CN(C)C | 6.18
O=C(Nc1ccncc1)C(=O)c1cn(Cc2ccc(Cl)cc2)c2ccccc12 | 474

IN: // lookup relative IC50 for Cc1ccc([N+](=O)[O-])cc1S(=O)(=O)N(C)/N=C/c1cnc2ccc(Br)cn12 [PIK-75 (HCl)]
OUT: 48.6

IN: // lookup relative IC50 for `O=C(Cc1ccc(-c2ccc(OCCN3CCOCC3)cc2)cn1)NCc1ccccc1`
OUT: 78

###

system: ZR-75-1; test: relative IC50 (midpoint of fitted logistic curve, plateau may be below 50% inhibition; CellTiter-Glo viability); higher = less potent; details: 4-OH-tamoxifen in medium 1 µM; 72 h
experimental.readout: relative IC50

compound | recorded.measurement
CN(N=O)C(=O)N[C@@H](C=O)[C@@H](O)[C@H](O)[C@H](O)CO | > 10000 nM
Nc1cccc2c1CN(C1CCC(=O)NC1=O)C2=O (configuration not stated) [Lenalidomide] | > 10000 nM
C[C@H]1C[C@@H]2[C@H]([C@@H](O)C[C@@]3(C)[C@H]2CC[C@]3(O)C(=O)CO)[C@@]2(C)C=CC(=O)C=C12 | > 10000 nM

IN: Tell me reported relative IC50 for `c1cc(CN2CCCNCCNCCCNCC2)ccc1CN1CCCNCCNCCCNCC1` , tested with ZR-75-1.
OUT: > 2500 nM

###

tested on: BT-474 Tam2; assay: drug sensitivity score (DSS) (DSS (dimensionless)); higher = more sensitive; extreme values may be limits of the assay; conditions: 4-OH-tamoxifen in medium 1 µM; 72 h
experimental.readout: drug sensitivity score
Lab note: jot the number down without any unit.

Recorded results for 4 molecules are shown here.
molecule | drug sensitivity score
Cc1ccc(F)c(NC(=O)Nc2ccc(-c3cccc4[nH]nc(N)c34)cc2)c1 [Linifanib (ABT-869)] | 0
COc1cc(OC2CCN(C)CC2)ccc1Nc1ncc2c(n1)n(C1CCCC1)c(=O)n2C [AZ 3146] | 0.781
COc1ccc(C2=N[C@@H](c3ccc(Cl)cc3)[C@@H](c3ccc(Cl)cc3)N2C(=O)N2CCNC(=O)C2)c(OC(C)C)c1 [Nutlin-3] | 2.34
CC[C@]1(O)C[C@H]2CN(CCc3c([nH]c4ccccc34)[C@@](C(=O)OC)(c3cc4c(cc3OC)N(C=O)[C@H]3[C@@](O)(C(=O)OC)[C@H](OC(C)=O)[C@]5(CC)C=CCN6CC[C@]43[C@@H]65)C2)C1 [Vincristine] | 30.8

IN: // lookup drug sensitivity score for CCCCCCCCc1ccc(CCC(N)(CO)CO)cc1 [Fingolimod]
OUT: 4.99

IN: // lookup drug sensitivity score for C[C@@H]1CCN(C(=O)CC#N)C[C@@H]1N(C)c1ncnc2[nH]ccc12 [Tofacitinib (Tasocitinib)]
OUT: 0

IN: // lookup drug sensitivity score for O=C(c1cc(Cc2n[nH]c(=O)c3ccccc23)ccc1F)N1CCN(C(=O)C2CC2)CC1 [Olaparib]
OUT: 0

IN: // lookup drug sensitivity score for Nc1ccccc1NC(=O)c1ccc(CNC(=O)OCc2cccnc2)cc1 [Entinostat]
OUT: 3.18

IN: // lookup drug sensitivity score for CN1CC[C@H](c2c(O)cc(O)c3c(=O)cc(-c4ccccc4Cl)oc23)[C@H](O)C1 [Alvocidib (Flavopiridol)]
OUT: 16.9

IN: // lookup drug sensitivity score for Nc1nc2[nH]cc(CCc3ccc(C(=O)N[C@@H](CCC(=O)O)C(=O)O)cc3)c2c(=O)[nH]1 [Pemetrexed]
OUT: 0

IN: // lookup drug sensitivity score for Cn1cnc2c(F)c(Nc3ccc(Br)cc3F)c(C(=O)NOCCO)cc21 [MEK-162 (ARRY-162)]
OUT: 0

IN: // lookup drug sensitivity score for Cc1cn(-c2cc(NC(=O)c3ccc(C)c(Nc4nccc(-c5cccnc5)n4)c3)cc(C(F)(F)F)c2)cn1 [Nilotinib]
OUT: 0

IN: // lookup drug sensitivity score for CC/C(=C(\c1ccc(O)cc1)c1ccc(OCCN(C)C)cc1)c1ccccc1 [4-hydroxytamoxifen]
OUT: 4.79

IN: // lookup drug sensitivity score for Cc1cc(C(C)Nc2ccccc2)c2nc(N3CCOCC3)cc(=O)n2c1 (stereo unspecified) [TGX-221]
OUT: 1.6

IN: // lookup drug sensitivity score for NCC(=O)CCC(=O)O [Aminolevulinic acid]
OUT: 0

IN: // lookup drug sensitivity score for C[C@@H](Oc1cc(-c2cnn(C3CCNCC3)c2)cnc1N)c1c(Cl)ccc(F)c1Cl [Crizotinib]
OUT: 0
